# Species on record: Homo sapiens
# assay: Inhibition of human topoisomerase-2 mediated kinetoplast DNA decatenation assessed as remaining activity at 100 uM relative to control
This listing pairs molecules with measured Activity.
Give your result in % as a bare value.

// known answers, use as guide
molecule	outputUnit	Activity
COc1ccc2nccc(CC[C@H]3OC[C@H](NCc4cc5c(cn4)OCCC5)CO3)c2c1	%	93.8
O=C(O)c1cn(C2CC2)c2cc(N3CCNCC3)c(F)cc2c1=O	%	85.5
COc1ccc2nccc(CC[C@H]3OC[C@H](NCc4ccc5c(n4)NC(=O)CO5)CO3)c2c1	%	99.1
COc1ccc2nccc(CC[C@H]3OC[C@H](NCc4ccc(Cl)cc4)CO3)c2c1	%	97.8
COc1ccc2nccc(CC[C@H]3OC[C@H](NCc4cc5c(cn4)OCCO5)CO3)c2c1	%	95.1

Give reported Activity value for COc1cc([C@@H]2c3cc4c(cc3[C@@H](O[C@@H]3O[C@@H]5CO[C@@H](C)O[C@H]5[C@H](O)[C@H]3O)[C@H]3COC(=O)[C@H]23)OCO4)cc(OC)c1O [ETOPOSIDE]
33.6
